# Tgt: BRSK1 (human)
# Procedure text: KINOMEscan competition binding
# Condition context: compound 10.0 µM
Experimental readout: kinase still bound, per cent of control (%)

{"columns": ["Structure smiles", "Tgt", "Experimental readout", "Value units", "Val"],
 "data": [
  ["CCN(CC)CCCCNc1ncc2cc(-c3cc(OC)cc(OC)c3)c(NC(=O)NC(C)(C)C)nc2n1", "BRSK1 (human)", "kinase still bound, per cent of control", "%", 100],
  ["O=C(Nc1cccc(Nc2ncc(Br)c(NCCc3cnc[nH]3)n2)c1)N1CCCC1", "BRSK1 (human)", "kinase still bound, per cent of control", "%", 7.6],
  ["O=c1cc(N2CCOCC2)oc2c(-c3cccc4c3sc3ccccc34)cccc12", "BRSK1 (human)", "kinase still bound, per cent of control", "%", 100],
  ["COc1cc(C(=O)N2CCC(N3CCN(C)CC3)CC2)ccc1Nc1ncc2c(n1)N(C)c1ccccc1C(=O)N2C", "BRSK1 (human)", "kinase still bound, per cent of control", "%", 81],
  ["CCN1CCN(C(=O)Cc2ccc(Nc3ncc(F)c(Nc4ccc(C(=O)Nc5ccccc5Cl)cc4)n3)cc2)CC1", "BRSK1 (human)", "kinase still bound, per cent of control", "%", 88],
  ["CS(=O)(=O)N1CCN(Cc2cc3nc(-c4cccc5[nH]ncc45)nc(N4CCOCC4)c3s2)CC1", "BRSK1 (human)", "kinase still bound, per cent of control", "%", 100],
  ["NC(=O)Nc1cc(-c2cccc(F)c2)sc1C(=O)N[C@@H]1CCCNC1", "BRSK1 (human)", "kinase still bound, per cent of control", "%", 4.9],
  ["C[C@@H](Oc1cc(-c2cnn(C3CCNCC3)c2)cnc1N)c1c(Cl)ccc(F)c1Cl", "BRSK1 (human)", "kinase still bound, per cent of control", "%", 48],
  ["COc1cc2ncnc(-n3nc(-c4ccccn4)nc3N)c2cc1OC", "BRSK1 (human)", "kinase still bound, per cent of control", "%", 18],
  ["CCN(CC)CCCCNc1ncc2c(n1)N(C)C(=O)N(c1c(Cl)c(OC)cc(OC)c1Cl)C2", "BRSK1 (human)", "kinase still bound, per cent of control", "%", 100],
  ["C=CC(=O)Nc1cc(-n2c(=O)ccc3cnc4ccc(-c5cn[nH]c5)cc4c32)ccc1C", "BRSK1 (human)", "kinase still bound, per cent of control", "%", 82],
  ["CN(C)C/C=C/C(=O)Nc1ccc(C(=O)Nc2cccc(Nc3nccc(-c4cccnc4)n3)c2)cc1", "BRSK1 (human)", "kinase still bound, per cent of control", "%", 100],
  ["N#CCNC(=O)c1ccc(-c2ccnc(Nc3ccc(N4CCOCC4)cc3)n2)cc1", "BRSK1 (human)", "kinase still bound, per cent of control", "%", 100],
  ["COCC(=O)NC/C=C/c1ccc2ncnc(Nc3ccc(Oc4ccc(C)nc4)c(C)c3)c2c1", "BRSK1 (human)", "kinase still bound, per cent of control", "%", 100]
]}

###

# Tgt: MARK2 (human) (UniProt Q7KZI7)
# Sequence (Q7KZI7 whole entry, looked up): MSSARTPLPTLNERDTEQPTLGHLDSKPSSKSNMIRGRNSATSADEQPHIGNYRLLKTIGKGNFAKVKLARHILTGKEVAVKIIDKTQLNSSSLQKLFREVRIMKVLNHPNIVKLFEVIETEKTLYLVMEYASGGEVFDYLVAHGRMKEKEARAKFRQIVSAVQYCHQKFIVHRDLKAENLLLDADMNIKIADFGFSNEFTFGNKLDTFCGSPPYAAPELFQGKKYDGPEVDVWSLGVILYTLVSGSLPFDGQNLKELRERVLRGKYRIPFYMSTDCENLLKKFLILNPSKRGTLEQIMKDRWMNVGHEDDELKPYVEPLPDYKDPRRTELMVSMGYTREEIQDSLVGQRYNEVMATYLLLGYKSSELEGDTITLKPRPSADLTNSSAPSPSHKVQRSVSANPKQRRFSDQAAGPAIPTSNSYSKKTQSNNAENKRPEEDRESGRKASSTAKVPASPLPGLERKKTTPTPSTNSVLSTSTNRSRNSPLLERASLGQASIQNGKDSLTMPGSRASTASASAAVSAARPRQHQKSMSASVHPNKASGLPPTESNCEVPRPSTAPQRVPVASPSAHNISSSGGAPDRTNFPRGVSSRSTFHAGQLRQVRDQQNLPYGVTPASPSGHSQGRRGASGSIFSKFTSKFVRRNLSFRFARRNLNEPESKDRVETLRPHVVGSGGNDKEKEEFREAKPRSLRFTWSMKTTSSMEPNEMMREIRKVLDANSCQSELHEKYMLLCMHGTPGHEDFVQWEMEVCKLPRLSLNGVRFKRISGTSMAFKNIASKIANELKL
# Procedure text: KINOMEscan competition binding
# Condition context: compound 10.0 µM

{"columns": ["Structure smiles", "Tgt", "Value units", "kinase still bound, per cent of control"],
 "data": [
  ["COc1cc(C(=O)N2CCC(N3CCN(C)CC3)CC2)ccc1Nc1ncc2c(n1)N(C)c1ccccc1C(=O)N2C", "MARK2 (human) (UniProt Q7KZI7)", "%", 100],
  ["CCN1CCN(C(=O)Cc2ccc(Nc3ncc(F)c(Nc4ccc(C(=O)Nc5ccccc5Cl)cc4)n3)cc2)CC1", "MARK2 (human) (UniProt Q7KZI7)", "%", 50],
  ["CS(=O)(=O)N1CCN(Cc2cc3nc(-c4cccc5[nH]ncc45)nc(N4CCOCC4)c3s2)CC1", "MARK2 (human) (UniProt Q7KZI7)", "%", 100],
  ["C=CC(=O)Nc1cc(-n2c(=O)ccc3cnc4ccc(-c5cn[nH]c5)cc4c32)ccc1C", "MARK2 (human) (UniProt Q7KZI7)", "%", 83],
  ["CN(C)C/C=C/C(=O)Nc1ccc(C(=O)Nc2cccc(Nc3nccc(-c4cccnc4)n3)c2)cc1", "MARK2 (human) (UniProt Q7KZI7)", "%", 73],
  ["CCN(CC)CCCCNc1ncc2c(n1)N(C)C(=O)N(c1c(Cl)c(OC)cc(OC)c1Cl)C2", "MARK2 (human) (UniProt Q7KZI7)", "%", 100],
  ["O=C(Nc1cccc(Nc2ncc(Br)c(NCCc3cnc[nH]3)n2)c1)N1CCCC1", "MARK2 (human) (UniProt Q7KZI7)", "%", 0.4],
  ["COc1cc2ncnc(-n3nc(-c4ccccn4)nc3N)c2cc1OC", "MARK2 (human) (UniProt Q7KZI7)", "%", 53],
  ["Cc1n[nH]c2ccc(-c3cncc(OC[C@@H](N)Cc4c[nH]c5ccccc45)c3)cc12", "MARK2 (human) (UniProt Q7KZI7)", "%", 13],
  ["O=c1cc(N2CCOCC2)oc2c(-c3cccc4c3sc3ccccc34)cccc12", "MARK2 (human) (UniProt Q7KZI7)", "%", 90]
]}
